# System name: T1, ActRIIa receptor-Fc fusion (UniProt P27037 20-134, limits assumed)
# T1 construct: BMP receptor-Fc fusion used at 5 ug/mL
# T1 sequence (P27037 20-134 limits assumed): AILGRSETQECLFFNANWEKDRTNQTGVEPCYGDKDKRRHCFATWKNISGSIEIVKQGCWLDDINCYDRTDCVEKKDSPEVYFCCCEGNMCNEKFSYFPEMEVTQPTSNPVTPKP
# Assay method text: ELISA-like plate assay, captured BMP-7 from conditioned media, receptor-Fc detection
Exercise: for every item that follows, state its recorded ActRIIa binding (relative to wild type = 1.0).

stdin: Would you mind telling me what ActRIIa binding (relative to wild type = 1.0) value was observed for BMP-7 variant Y44N (ligand, In conditioned media; numbering on mature BMP-7) STGGKQRSQNRSKTPKNQEALRMASVAENSSSDQRQACKKHELNVSFRDLGWQDWIIAPEGYAAYYCEGECAFPLNSYMNATNHAIVQTLVHFINPETVPKPCCAPTQLNAISVLYFDDSSNVILKKYRNMVVRACGCH ?
stdout: 0.45 relative to wild type

stdin: One more binder: BMP-7 variant Y128K (ligand, In conditioned media; numbering on mature BMP-7) STGGKQRSQNRSKTPKNQEALRMASVAENSSSDQRQACKKHELYVSFRDLGWQDWIIAPEGYAAYYCEGECAFPLNSYMNATNHAIVQTLVHFINPETVPKPCCAPTQLNAISVLYFDDSSNVILKKKRNMVVRACGCH
stdout: 1.11 relative to wild type

stdin: One more binder: BMP-7 variant K126E (ligand, In conditioned media; numbering on mature BMP-7) STGGKQRSQNRSKTPKNQEALRMASVAENSSSDQRQACKKHELYVSFRDLGWQDWIIAPEGYAAYYCEGECAFPLNSYMNATNHAIVQTLVHFINPETVPKPCCAPTQLNAISVLYFDDSSNVILEKYRNMVVRACGCH
stdout: 0.26 relative to wild type

stdin: One more binder: BMP-7 variant Q53D (ligand, In conditioned media; numbering on mature BMP-7) STGGKQRSQNRSKTPKNQEALRMASVAENSSSDQRQACKKHELYVSFRDLGWDDWIIAPEGYAAYYCEGECAFPLNSYMNATNHAIVQTLVHFINPETVPKPCCAPTQLNAISVLYFDDSSNVILKKYRNMVVRACGCH
stdout: 0.89 relative to wild type

stdin: One more binder: BMP-7 variant L21G (ligand, In conditioned media; numbering on mature BMP-7) STGGKQRSQNRSKTPKNQEAGRMASVAENSSSDQRQACKKHELYVSFRDLGWQDWIIAPEGYAAYYCEGECAFPLNSYMNATNHAIVQTLVHFINPETVPKPCCAPTQLNAISVLYFDDSSNVILKKYRNMVVRACGCH
stdout: 1.5 relative to wild type

stdin: One more binder: BMP-7 variant L21D (ligand, In conditioned media; numbering on mature BMP-7) STGGKQRSQNRSKTPKNQEADRMASVAENSSSDQRQACKKHELYVSFRDLGWQDWIIAPEGYAAYYCEGECAFPLNSYMNATNHAIVQTLVHFINPETVPKPCCAPTQLNAISVLYFDDSSNVILKKYRNMVVRACGCH
stdout: 0.94 relative to wild type

stdin: One more binder: BMP-7 variant N76A (ligand, In conditioned media; numbering on mature BMP-7) STGGKQRSQNRSKTPKNQEALRMASVAENSSSDQRQACKKHELYVSFRDLGWQDWIIAPEGYAAYYCEGECAFPLASYMNATNHAIVQTLVHFINPETVPKPCCAPTQLNAISVLYFDDSSNVILKKYRNMVVRACGCH
stdout: 0.96 relative to wild type
